Tested on: P388 leukemia ip, CD2F1 mice, survival T/C
Test: NCI In Vivo Anticancer Drug Screen. Data for tumor model P388 Leukemia (intraperitoneal) in CD2F1 (CDF1) mice
Conditions: endpoint: median survival time; dose: 240.0 mg/kg/injection; schedule: Q01DX005 (ip); vehicle: saline with Tween-80; higher = longer survival
Experimental: The antitumor activity of compounds was measured in mice bearing transplantable tumors. Survival or tumor size were measured and the results are expressed as the measurement made in the treated group (T) divided by the measurement made in the vehicle treated control group (C). The tumor model used in this assay is P388 Leukemia (intraperitoneal) in CD2F1 (CDF1) mice
Toxic doses and inconclusive results are not listed.
Give measured T/C for each item. Keep answers brief.

Lookup result for `O=C(/C=C/c1c(-c2ccccc2)[nH]c2ccccc12)c1ccc([N+](=O)[O-])cc1` ; measured T/C: 87 % of control

Entry under test: `Cc1cc2[nH]c3c(C#N)c(O)c(Cc4ccccc4)c(=O)n3c2cc1C` . Its T/C was 90 % of control

The compound listed as O=C1N=NC2NC=CN3C=CC=C1C23 (stereo not given) has a reported T/C of 110 % of control

Memo: COC(SC)c1cc(-c2c(Cl)cccc2Cl)no1 (stereo not given) , reported T/C: 107 % of control

Value of measured T/C for the entry `Cc1cc2n(n1)C(=O)CC(=O)C2` : 109 % of control

So for `Cn1nc2c(c(Cl)c1=O)Nc1ccccc1O2` , the logged T/C turned out to be 96 % of control

T/C for `O=C(Cc1nc2ccccc2nc1CC(=O)c1cccnc1)c1cccnc1` is 93 % of control

Entry `CSC(=N\N=C\c1c(F)cccc1Cl)/N=C/N(C)C` ; T/C = 103 % of control

Summary for this compound, `O=P(CSCCO)(c1ccccc1)c1ccccc1` : T/C is 97 % of control

Note to self: T/C recorded for `CC1(C)OC(=O)C(=Cc2ccc(C#N)cc2)C(=O)O1` was 111 % of control

So, `CC(C)(C)NCc1cc(Nc2ccnc3cc(Cl)ccc23)cc(-c2ccc(Cl)cc2)c1O` ? Its T/C was 97 % of control

T/C measured on O=C(CC(=O)N1N=C(N(c2ccccc2)c2ccccc2)CC1c1ccccc1)Nc1ccccc1Cl (stereo not given) = 90 % of control

Record `CN(C)/C=N/NC(=O)c1ccccc1N` , field T/C: 100 % of control

compound `CCCn1c(C)nc2c([N+](=O)[O-])cc(C(F)(F)F)cc21` , T/C observed: 99 % of control

Sure, the documented T/C for `Cc1noc(NS(=O)(=O)c2ccc(NCc3c4ccccc4nc4cc(Cl)ccc34)cc2)c1C` is 103 % of control

# compound `NCCCn1[nH]c(=O)c2ncccc2c1=O` ; its T/C = 102 % of control

In plain terms, `COc1cc(/C=C/C(=O)NCCCCN)ccc1O` has a documented T/C of 95 % of control

Briefly, T/C measured for NNC(=O)C1C2c3ccccc3C(c3ccccc32)C1C(=O)O (stereo not given) : 103 % of control

The measured T/C associated with `O=c1[nH]cnc2nc3c(nc12)CCc1ccccc1-3` reads 97 % of control

The compound listed as CCOC(=O)C1=CC2CCOC2O1 (stereo not given) has a reported T/C of 101 % of control

So for `CS/N=C(/c1ccc(/C(=N/SC)N(C)C)cc1)N(C)C` , the logged T/C turned out to be 99 % of control

Value of T/C reported for the compound `C[Si](C)(C)C#CC[Si](C)(C)C` is 106 % of control

Noted for O=C1OC(C2OC(=O)C(=O)C2C(=O)c2ccccc2)C(C(=O)c2ccccc2)C1=O (stereo not given) : its T/C reads 108 % of control

// `Cc1cc2nc(CC(=O)c3ccccc3)c(=O)[nH]c2cc1C` : T/C value = 87 % of control

Data point: `CCCn1c(C)nc2cc(C(F)(F)F)cc([N+](=O)[O-])c21` ; T/C = 103 % of control

C/C(=N\N(C)C)C1=C(O)C(C(C)C)NC1=O (stereo not given) has a reported T/C of 98 % of control

So for Cc1ccc(C(C#N)C(=O)CCCC(=O)Nc2ccc(C)c(C)c2)cc1 (stereo not given) , the logged T/C turned out to be 100 % of control

// recorded T/C for `O=C(CCCC(=O)Nc1cccc2[nH]c3ccccc3c(=O)c12)Nc1cccc2[nH]c3ccccc3c(=O)c12` : 100 % of control

Memo: O=C(NC1CCCN1C(=O)/C=C/c1ccccc1)NC1CCCN1C(=O)/C=C/c1ccccc1 (stereo not given) , reported T/C: 101 % of control

Recorded result, `O=C(c1ccccc1)C(N=Nc1ccccc1)(c1ccccc1)c1ccccc1` , T/C: 100 % of control

Record CC(=O)O[C@H]1CC[C@]2(C)C3CC[C@]4(C)C([C@H](C)CCCC(C)C)CCC4[C@]3(C#N)n3c(=O)n(-c4ccccc4)c(=O)n3[C@]2(C#N)C1 (stereo not given in full) , field T/C: 91 % of control

T/C for `O=c1oc2ccc(Br)cc2cc1-n1nnc2ccccc21` is 97 % of control

// T/C lookup, compound = COc1ccc(S(=O)c2coc3ccccc3c2=O)cc1 (stereo not given) , result: 100 % of control

Reported T/C of `CCCC/C([O-])=C1/C(=O)N(c2ccccc2)N=C1C.CCCC/C([O-])=C1/C(=O)N(c2ccccc2)N=C1C.[Cu+2]` : 96 % of control

Noted for `O=c1[nH]c(Nc2ccccc2)c([N+](=O)[O-])c(=O)[nH]1` : its T/C reads 106 % of control

So, `COC(=O)c1nc2c(c(=O)n(C)c(=O)n2C)n1C` ? Its T/C was 89 % of control

Given item `O=C1ON=C(c2ccccc2)/C1=C\C=C\c1ccccc1` , the value recorded as its T/C is 103 % of control

Briefly, T/C measured for `CCOC(=O)c1cnc2cc3c(cc2c1N=[N+]=[N-])OCO3` : 87 % of control

Measured T/C of COc1ccccc1NC(=O)C1=CNC(C)=C(C(=O)Nc2ccccc2OC)C1/C=C/c1ccccc1 (stereo not given) : 105 % of control

Documented T/C of `COC1=C(OC)C(=O)C2=C(OCCCCO2)C1=O` : 99 % of control

T/C reported for this compound `[Cu+2].[O-]/N=C/c1ccc(O)c(O)c1[O-].[O-]/N=C/c1ccc(O)c(O)c1[O-]` : 89 % of control

Quick note, T/C for `N#Cc1c2c(c(=O)n3c1[nH]c1ccccc13)CCC2` landed at 94 % of control

Short answer for `Nc1cc(=O)n(Cc2ccccc2)c(N)c1C(=O)NCc1ccccc1` : T/C was 100 % of control

Measured T/C of `O=c1cc(-c2ccccc2)[nH]c2[nH]n(-c3ccccc3)c(=O)c12` : 94 % of control

T/C in this record for COc1ccc(C2OC3=Nc4cc(C)c(C)cc4NC3C2=O)cc1OC (stereo not given) : 99 % of control

---

test system: P388 leukemia ip, CD2F1 mice, survival T/C; assay: NCI In Vivo Anticancer Drug Screen. Data for tumor model P388 Leukemia (intraperitoneal) in CD2F1 (CDF1) mice; details: endpoint: median survival time; dose: 100.0 mg/kg/injection; schedule: Q01DX005 (ip); vehicle: Klucel (hydroxypropylcellulose) (HPC); higher = longer survival
Toxic doses and inconclusive results are not listed.
REPORTED ENDPOINT: T/C

Given item `CCCCN=Cc1c(O)c(O)c(C(C)C)c2cc(C)c(-c3c(C)cc4c(C(C)C)c(O)c(O)c(C=NCCCC)c4c3O)c(O)c12` , the value recorded as its T/C is 107 % of control

Reported T/C ( CCCCCC(=O)NC1C(O)OC(CO)C(O)C1O (stereo unspecified) ) = 97 % of control

The recorded T/C for entry O=C(NC(Cc1ccc(I)cc1)C(=O)O)c1ccc(Br)cc1 (stereo unspecified) equals 98 % of control

Entry under test: `O=C1OC2(c3ccc(O)cc3Oc3cc(O)ccc32)c2cccc3cccc1c23` . Its T/C was 99 % of control

Documented T/C of `CCCCNC1=CC(=O)C(NCCCC)=CC1=O` : 101 % of control

So, `CCc1c2c(cc3c1[nH]c1ccccc13)C(=O)NC2=O` ? Its T/C was 97 % of control

Entry under test: `O=C1CNC(=O)N1CN1CCOCC1` . Its T/C was 118 % of control

Entry under test: Cc1cc(O)c(CCC(C)CCCC(C)C)c(O)c1 (stereo unspecified) . Its T/C was 100 % of control

T/C reading for `O=C(CSC(c1ccccc1)(c1ccccc1)c1ccccc1)c1ccc([N+](=O)[O-])cc1` : 105 % of control

Looking up `Oc1c(Cl)cc(Cl)cc1C=NCCN(CCN=Cc1cc(Cl)cc(Cl)c1O)CCN=Cc1cc(Cl)cc(Cl)c1O` , I see its T/C listed as 92 % of control

Entry `CN(/N=C\c1cc(Cl)cc(Cl)c1O)c1ccccc1[N+](=O)[O-]` — recorded T/C = 95 % of control

Where do these numbers come from? They come from PubChem BioAssay AID330.
